System: 439559-082-T-J2-PDC complex spheroid growth;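 further: spheroids exposed to agents for 7 days starting day 3 after seeding; percent of DMSO vehicle control viability with 100% = vehicle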
Experiment: Anticancer human tumor 439559-082-T-J2-PDC patient-derived colon adenocarcinoma cell line growth inhibition [Asc]
Details: second compound 0.949 µM; first compound 0.316 µM; active compounds read low
Excerpt: Multicellular complex tumor spheroid response to apoptosis pathway targeting inhibitors Alrizomadlin, Pelcitoclax, and Dasminapant in combination with a variety of drugs and investigational agents in selected tumor cell lines […] Compounds. […] If the clinical Cmax for an agent had not been determined, the highest concentration tested was 10 microM. […]
Examples of compounds with documented viability, T/C follow.

# Compound, viability, T/C
data = [
    ("C=C(F)C(=O)N1CCN(c2nc(OCC3CCCN3C)nc3c2CCN(c2cccc4cccc(Cl)c24)C3)CC1CC#N (configuration not stated) + CCN1C(C(=O)NC23CCC(C(=O)O)(CC2)CC3)C(c2cccc(Cl)c2F)C2(C(=O)Nc3cc(Cl)ccc32)C12CCCCC2", "105%"),
    ("O=C(c1cc(Cc2n[nH]c(=O)c3ccccc23)ccc1F)N1CCN(C(=O)C2CC2)CC1 + CCN1C(C(=O)NC23CCC(C(=O)O)(CC2)CC3)C(c2cccc(Cl)c2F)C2(C(=O)Nc3cc(Cl)ccc32)C12CCCCC2", "113%"),
]
